System: HS 578T breast
Assay: NCI-60 one-dose screen, 48 h (100 = growth as untreated, 0 = no growth, -100 = all killed)
Conditions: 10 µM unless noted
Compounds without any hit were thinned out: in the full panel of roughly 83,000, 20% have a hit.
assay endpoint: growth (%)
One number for each entry, in %.

Solved cases below.
Field request: growth | item: `CCCCCCCCCCCCCCCCCC1=NCCCN1CCO`
101

Field request: growth | item: CCC1CCCCN1C(=S)N/N=C(\C)c1ccccn1 (stereo not drawn)
-3.92

Field request: growth | item: `COc1ccc(NC(=O)/C(=C/N2C(=O)/C(=C/c3ccc(OC)c(OC)c3)NC2=S)C(C)=O)cc1`
40.7

State the recorded growth for every item in the following list.
1. CC(C)c1ccc(C(=O)OC2CCCC2)cc1
2. CC1CC(C)(C)OB(OC(C)CC(C)(C)OB2OC(C)CC(C)(C)O2)O1 (stereo not drawn)
3. C/C(=N/NC(N)=S)c1ccc(C)cc1
4. O=C(O)c1cccc2cccc(-c3c4ccc(=O)c(O)c-4oc4c(O)c(O)ccc34)c12

[101, 121, 102, 99.5]

Field request: growth | item: Cc1ccccc1N=C(N)Nc1ccccc1C (tested in a mixture with another compound)
111
